relative viability values for the molecules below.
Test system: HARA
Assay: relative viability (nuclei count vs DMSO), 5 days (fraction); higher = more cells survive
Conditions: first compound 6.325 µM
I'd appreciate a reply containing only the number, no unit.

Would you kindly share the measured relative viability for Cc1csc(=NC2CCCCC2)n1/N=C/c1ccc(O)c(O)c1O [MIM1] + O=C(CCCCCCC(=O)Nc1ccccc1)NO [Vorinostat] (partner 1 µM) ?
0.511

Would you kindly share the measured relative viability for Cc1csc(=NC2CCCCC2)n1/N=C/c1ccc(O)c(O)c1O [MIM1] + Cc1nc(NC(=O)N2CCC[C@H]2C(N)=O)sc1-c1ccnc(C(C)(C)C(F)(F)F)c1 [Alpelisib] (partner 2 µM) ?
0.361

Would you kindly share the measured relative viability for Cc1csc(=NC2CCCCC2)n1/N=C/c1ccc(O)c(O)c1O [MIM1] + CC(C)C[C@H](NC(=O)[C@H](Cc1ccccc1)NC(=O)c1cnccn1)B(O)O [Bortezomib] (partner 0.002 µM) ?
1.08

Would you kindly share the measured relative viability for Cc1csc(=NC2CCCCC2)n1/N=C/c1ccc(O)c(O)c1O [MIM1] + O=C(c1cc(Cc2n[nH]c(=O)c3ccccc23)ccc1F)N1CCN(C(=O)C2CC2)CC1 [Olaparib] (partner 8 µM) ?
0.187

Numbers sourced from the supplement of paper PMC10307832.
